# EXPERIMENT NOTES: M. tuberculosis growth inhibition, HTS (AID 449762);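 also: bacterial growth assessed after seven days of incubation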
# CONDITION PARAMETERS: M. tuberculosis H37Rv growth inhibition, 7H9 media; at 25 µM; active compounds read high
Hit rate of the full screen: of about 330,000 compounds, about 1,900 (0.58%) were called active. Roughly 4% stayed inconclusive and do not appear here. A selection follows. Results with a measured potency or affinity are listed apart.
Quick list: inhibition per entry.
Express it in %; write the number only.

# COMPOUND, QUANTITY MEASURED, ENDPOINT UNIT, MEAS VALUE
records = [
    ("C=CCN(CC=C)C(=O)C[n+]1ccc(C(N)=O)cc1", "inhibition", "%", 6.91),
    ("CC(C)(C)C(=O)N1CCN(CCN2C(=O)c3cccc4cccc(c34)C2=O)CC1", "inhibition", "%", -4.28),
    ("CCOC(=O)N/N=C(\\C)c1ccc(C)o1", "inhibition", "%", -1.85),
    ("Cc1ccccc1C1C(C#N)=C2N=C(N)c3ccccc3N2C2=C1C(=O)CCC2 (stereo not given)", "inhibition", "%", 6.31),
    ("CCOC(=O)N/N=C\\c1ccc([N+](=O)[O-])o1", "inhibition", "%", -1.58),
    ("COc1cccc(/C=N/NC(=O)CNC(=O)/C=C\\c2ccccc2)c1O", "inhibition", "%", 0.24),
    ("COc1cc(NC(=O)C/C(C)=N/NC(=O)Cc2ccccc2)c(OC)cc1Cl", "inhibition", "%", 9.08),
    ("CC(C)(C)OC(=O)C[C@H]1C/C=C\\C[C@H](CC(=O)NCCO)C(=O)NC[C@H](c2ccccc2)OC1=O", "inhibition", "%", -2.46),
    ("COc1cc(C(=O)NCC(=O)Nc2c(C)cccc2C)ccc1OCc1ccccc1", "inhibition", "%", -1.77),
]

Kindly review the next compound as well.
Recorded inhibition for Cc1ccc(C2C(C#N)=C(N)Oc3n[nH]c(C)c32)cc1 (stereo not given) , please?
2.2

###

Quick list: inhibition per entry.
# EXPERIMENT NOTES: M. tuberculosis growth inhibition, HTS (AID 449762);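 also: bacterial growth assessed after seven days of incubation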
# CONDITION PARAMETERS: M. tuberculosis H37Rv growth inhibition, 7H9 media; at 25 µM; active compounds read high
The campaign covered roughly 330,000 compounds. About 1,900 (0.58%) were called active. Another 4% or so got no clear call; they are omitted. Not all results are given here. Potency and affinity values are given separately.
Express it in %; write the number only.

# COMPOUND, MEAS VALUE
measured = [
    ("Cc1nnc(NC(=O)c2cc(-c3ccncc3)nc3c(C)cccc23)s1", 9.24),
    ("COc1ccc(-c2nsc3c(N4CCCC4)ncnc23)cc1", 5.98),
    ("CCOc1ccc(NC(=O)CCC(=O)Oc2ccc(C)cc2)cc1", -3.3),
    ("NC(=O)C1CCN(Cc2nc(-c3ccccc3)no2)CC1", -14.2),
]

Recorded inhibition for Cc1ccc(C2C(C#N)=C(N)OC3=C2C(=O)CC(C)(C)C3)s1 (stereo not given) , please?
4.01

Recorded inhibition for CCCOc1ccc(N2CC(C(=O)Nc3ncccc3C)CC2=O)cc1 (stereo not given) , please?
25.7

Recorded inhibition for Cc1cc(CN2CCCC(CO)(Cc3cccc(Cl)c3)C2)n[nH]1 (stereo not given) , please?
2.25

Recorded inhibition for CC1(C)CC(=O)C2=C(C1)OC(N)=C([N+](=O)[O-])C2c1cccs1 (stereo not given) , please?
3.64

Recorded inhibition for CS(=O)(=O)c1ccc(C(=O)OCC(=O)N2CCCc3ccccc32)cc1 , please?
-0.56

Recorded inhibition for COc1cc(OC)cc(C(=O)NCCSC2CCCCC2)c1 , please?
1.7

Recorded inhibition for CC(Nc1cc(N2CCN(C(=O)C(C)(C)C)CC2)ccc1[N+](=O)[O-])c1ccccc1 (stereo not given) , please?
6.58

Recorded inhibition for Cc1ccc(S(=O)(=O)NCc2ccc(C(=O)NCc3cccnc3)cc2)cc1 , please?
-0.01

Recorded inhibition for O=C(CSc1ncnc2nc[nH]c12)c1ccc([N+](=O)[O-])cc1 , please?
-8.27

Recorded inhibition for Cc1ccccc1C(=O)Nc1cccc(-c2cn3ccccc3n2)c1 , please?
35.7

Recorded inhibition for CCc1ccc(Nc2n[n+](-c3ccccc3)c(-c3ccc(C(=O)O)cc3)s2)cc1 , please?
4.87

Recorded inhibition for O=C(C1=C[C@H](c2ccc(Br)cc2)C[C@H](OCCCCO)O1)N1CCOCC1 , please?
8.9

Recorded inhibition for COc1ccccc1N(CC(=O)NCCc1ccccc1)C(=O)CCC(=O)Nc1ccccn1 , please?
-2.52

Recorded inhibition for COc1cc(C(=O)Nc2cccc(-n3cnnn3)c2)cc(OC)c1OC , please?
-9.02

Recorded inhibition for Cc1ccc(Nc2nc(N)nc(CN3CCN(C)CC3)n2)cc1 , please?
-7.52

Recorded inhibition for CCOc1ccccc1NC1=C(Cl)C(=O)N(c2ccc(OC)cc2)C1=O , please?
-6.27

###

# EXPERIMENT NOTES: M. tuberculosis growth inhibition, HTS (AID 449762);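 also: bacterial growth assessed after seven days of incubation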
# CONDITION PARAMETERS: M. tuberculosis H37Rv growth inhibition, 7H9 media; at 25 µM; active compounds read high
The whole screen tested about 330,000 compounds, of which about 1,900 (0.58%) were called active. Inconclusive results (about 4%) are left out. The list is a sample of the results. Entries with a potency or affinity are not part of this list.
QUANTITY MEASURED: inhibition (%)
Express it in %; write the number only.

# COMPOUND, inhibition, %
records = [
    ("Cc1cc(NC(=O)/C=C/C(=O)N(CC(=O)NC2CCCC2)c2cccc3ccccc23)no1", -2.08),
    ("Oc1ccccc1-c1nnc(COc2ccc(Cl)cc2Cl)o1", 2.32),
]

Recorded inhibition for CN1/C(=C\C(=O)C[n+]2cccc(C(N)=O)c2)C(C)(C)c2ccccc21 , please?
0.09

Recorded inhibition for CCCn1nnnc1SCC(=O)N1C(C)CCCC1C (stereo not given) , please?
5.01

Recorded inhibition for CN1/C(=C\C(=O)COC(=O)c2ccc(O)cc2)C(C)(C)c2ccccc21 , please?
-3.13

Recorded inhibition for COc1ccc(C(CNC(=O)c2ccc(Br)o2)N2CCN(C)CC2)cc1 (stereo not given) , please?
2.14

Recorded inhibition for CS(=O)(=O)n1nc(-c2cccnc2)nc1NCc1ccccc1 , please?
0.47

Recorded inhibition for Cc1ccc(CNC(=O)c2ccc(NC(=O)C3=CSCCO3)cc2)cc1 , please?
-1.39

Recorded inhibition for CC(=O)Nc1cccc(OCC(=O)Nc2ccc(F)cc2)c1 , please?
-11.2

Recorded inhibition for COC(=O)c1ccc(Cn2cc(C(F)(F)F)ccc2=O)cc1 , please?
38.8

Recorded inhibition for COc1cccc(NC(=O)C2CCN(C(=O)[C@@H]3Cc4ccccc4CN3C(=O)OC(C)(C)C)CC2)c1 , please?
2.76

Recorded inhibition for Cc1c(C(=O)Nc2ccc3c4c(cccc24)CC3)cccc1[N+](=O)[O-] , please?
27.6

Recorded inhibition for Nc1ncnc(Sc2ccccc2)c1[N+](=O)[O-] , please?
-0.35

Recorded inhibition for CN(CC(=O)Nc1ccc(F)cc1[N+](=O)[O-])Cc1ccccc1 , please?
6.03

Recorded inhibition for Cc1nc(Sc2ccccc2)c(C#N)c(C)c1[N+](=O)[O-] , please?
3.11

###

Quick list: inhibition per entry.
# EXPERIMENT NOTES: M. tuberculosis growth inhibition, HTS (AID 449762);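 also: bacterial growth assessed after seven days of incubation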
# CONDITION PARAMETERS: M. tuberculosis H37Rv growth inhibition, 7H9 media; at 25 µM; active compounds read high
The whole screen tested about 330,000 compounds, of which about 1,900 (0.58%) were called active. Another 4% or so got no clear call; they are omitted. A selection follows. Entries with a potency or affinity are not part of this list.

# COMPOUND, QUANTITY MEASURED, MEAS VALUE
records = [
    ("COC(=O)c1nonc1NCn1nnc2ccccc21", "inhibition", "-13.7% (inactive)"),
    ("COc1ccc(C2=NN(C(=O)COC(=O)c3ccc(NC(=O)CC#N)cc3)C(c3ccco3)C2)cc1 (centres undefined)", "inhibition", "-7.88% (inactive)"),
    ("O=C(C1=C(O)C(=O)N(CCOCCO)C1c1cccc([N+](=O)[O-])c1)c1cccs1 (centres undefined)", "inhibition", "-3.54% (inactive)"),
    ("O=C(NC1CCS(=O)(=O)C1)/C(=C/c1ccco1)NC(=O)c1ccccc1 (centres undefined)", "inhibition", "-0.22% (inactive)"),
    ("Cc1nn(C(C)C(=O)N2CCCC2)c(=O)c2nn(-c3ccccc3)c(C)c12 (centres undefined)", "inhibition", "4.45% (inactive)"),
    ("Cc1ccccc1Nc1c(-c2ccccn2)nc2c(C)cccn12", "inhibition", "1.32% (inactive)"),
    ("CCCn1c(SCC(=O)Nc2ccc3c(c2)OCCO3)nnc1-c1ccco1", "inhibition", "-7.16% (inactive)"),
    ("Cc1ccc(NC(=O)c2nc[nH]c2C(=O)NCCCNC(=O)c2[nH]cnc2C(=O)Nc2ccc(C)cc2)cc1", "inhibition", "5.52% (inactive)"),
    ("CCCn1nc(C(=O)Nc2ccc(S(=O)(=O)Nc3nccs3)cc2)c2ccccc2c1=O", "inhibition", "8.73% (inactive)"),
    ("Cc1ccc(-c2nnc(NCc3nc4ccccc4[nH]3)c3ccccc23)cc1S(=O)(=O)N1CCOCC1", "inhibition", "63.7% (inactive)"),
]

Recorded inhibition for COc1cc(NC(=O)Cc2ccccc2)c(C(=O)O)cc1OC , please?
5.42% (inactive)

Recorded inhibition for CCN(c1cccc(C)c1)S(=O)(=O)c1nnc(NC(=O)c2ccco2)s1 , please?
-5.15% (inactive)

Recorded inhibition for CC(=O)Nc1ccc(C(=O)CN2C(=O)NC3(CCCCCC3)C2=O)c(F)c1 , please?
-9.64% (inactive)

Recorded inhibition for O=C(Cc1ccccc1)c1nc2ccccc2s1 , please?
-3.11% (inactive)
